These measurements were taken from the Human Domainome abundance scans (Beltran et al. 2025).

B1: E3 ubiquitin-protein ligase NEDD4, residues 836 to 881; numbered along this chain, P46934 (parent)
chain: EIEQGFLPKGWEVRHAPNGRPFFIDHNTKTTTWEDPRLKIPAHLRG

variants of: B1; test: abundance fitness (aPCA) (normalised: wild type 0, dead -1); higher = more abundant; growth selection in yeast, the domain comes from the species named; settings: Homo sapiens
The label depends only on abundance fitness: 1 if it is at least -0.4, -1 if it is smaller.

Request: Assess whether reported abundance fitness for `L44R` sits at -0.4 or higher.
Result: 1

Request: # check: abundance fitness of `T28G` is greater than or equal to -0.4
Result: 1

Request: Check this variant for abundance fitness at or above -0.4: `K29F`
Result: -1

Request: Reported abundance fitness reaches at least -0.4 for `P41G` ?
Result: -1

Request: Does `F23W` have a reported abundance fitness of at least -0.4?
Result: 1

Request: State whether the measured abundance fitness reaches -0.4, counting equality as reaching it, for `T32H`
Result: 1

Request: # bool: abundance fitness of `L44Y` >= -0.4
Result: 1

Request: Could you tell me if the measured abundance fitness of `R20M` reaches -0.4 or more?
Result: 1

Request: Hello, I need to know if `P21C` has measured abundance fitness not below -0.4. Thanks!
Result: 1

Request: Form field: abundance fitness at least -0.4? Entry: `W33E`
Result: 1

Request: Hello, I need to know if `D25E` has measured abundance fitness not below -0.4. Thanks!
Result: 1

Request: Could you please find out whether `A42C` has abundance fitness that meets -0.4 or exceeds it?
Result: 1

Request: Check the entry `I24L` : does abundance fitness equal or exceed -0.4?
Result: 1

Request: Hi team, for `D25L` , is the recorded abundance fitness at or above -0.4?
Result: -1

Request: State whether the measured abundance fitness reaches -0.4, counting equality as reaching it, for `L44G`
Result: 1

Request: # bool: abundance fitness of `N18T` >= -0.4
Result: 1

Request: Kindly determine if abundance fitness recorded for `G46A` is above or exactly -0.4.
Result: 1

Request: // inclusive: abundance fitness at least -0.4? input: `T28V`
Result: -1

Request: Could you verify whether the entry `R20A` shows abundance fitness of no less than -0.4?
Result: 1

Request: Please indicate if the recorded abundance fitness for `H26E` meets or exceeds -0.4.
Result: -1

Request: Quick check, abundance fitness >= -0.4? `F23V`
Result: -1

Request: Is abundance fitness for `E34G` at or above -0.4?
Result: -1

Request: # bool: abundance fitness of `H43Y` >= -0.4
Result: 1

Request: Is abundance fitness for `T31M` at or above -0.4?
Result: 1

Request: Determine whether this variant has abundance fitness no lower than -0.4: `T31V`
Result: 1

Request: hey, is abundance fitness for this one >= -0.4? `H26C`
Result: 1

Request: Quick check: does `D35S` have abundance fitness greater than or equal to -0.4?
Result: -1

Request: Answer whether abundance fitness of `R45H` is greater than or equal to -0.4.
Result: 1

Request: Decide: is the reported value of abundance fitness for `T30N` equal to or greater than -0.4?
Result: -1

Request: Hello, I need to know if `D35A` has measured abundance fitness not below -0.4. Thanks!
Result: 1

Request: Does abundance fitness meet or surpass -0.4 for `F23L` ?
Result: -1

Request: Quick check: does `K39Q` have abundance fitness greater than or equal to -0.4?
Result: 1

Request: Given the entry `P36F` , answer whether its abundance fitness meets or surpasses -0.4.
Result: -1

Request: Is abundance fitness at least -0.4? Consider `R37E`
Result: -1

Request: Check the entry `A42F` : does abundance fitness equal or exceed -0.4?
Result: 1

Request: Exam item: decide whether the reported abundance fitness for `R45K` is at least -0.4.
Result: 1

Request: Is reported abundance fitness greater than or equal to -0.4 here: `H43C`
Result: 1

Request: Kindly determine if abundance fitness recorded for `T30A` is above or exactly -0.4.
Result: 1
